Listed here: items and their measured melting point.

c1ccc2sc(SNC3CCCCC3)nc2c1 = 98 °C

Prompt line: What measured melting point goes with `ON=C(O)c1ccccc1O` ?
Response line: 177 to 185 °C

Prompt line: Lookup `CC(=O)Nc1cc(Cl)c(Cl)cc1[N+](=O)[O-]`
Response line: 126 to 128 °C

Prompt line: Lookup `COC(=O)c1cccc2c1-c1ccccc1C2=O`
Response line: 135 to 136 °C

Prompt line: Lookup `CCOC(=O)c1c(-c2ccccc2)csc1NC(=O)CCl`
Response line: 99 to 100 °C

* * *

Listed here: items and their measured melting point.

N#Cc1sc(Br)c2c1OCCO2 = 149 to 150 °C
Cc1ccc(S(=O)(=O)CCCl)cc1 = 77 to 78 °C
COc1cc2c(cc1OC)C(c1ccccc1[N+](=O)[O-])N(C(C)=O)CC2 (stereo not given) = 132 to 134 °C
Cc1c(C(=O)Cl)cnn1-c1ccc(F)cc1 = 90 to 92 °C

// below: melting point requested for another compound
Prompt line: What measured melting point goes with `N#Cc1cn(-c2ccccc2Cl)c(=O)[nH]c1=O` ?
Response line: 255 to 258 °C

* * *

Listed here: items and their measured melting point.

# example entries with known answers
Cc1ccc(C(N)=O)cc1C = 107 to 109 °C
COc1c(C(=O)O)csc1Br = 155 to 156 °C
Nc1cc(-c2ccc(Cl)cc2)nc(N)n1 = 158 to 161 °C
OCCc1ccc2ccccc2n1 = 103 °C
SC1=NNC(c2ccccn2)S1 (configuration not stated) = 114 to 116 °C

Prompt line: What measured melting point goes with `CC1(C)C=[N+]([O-])C(C)(C)C=[N+]1[O-]` ?
Response line: 298 to 300 °C

Prompt line: Lookup `O=[N+]([O-])c1ccc(/C=C/c2ccc3c(c2)OCO3)c([N+](=O)[O-])c1`
Response line: 178 to 179 °C

* * *

Listed here: items and their measured melting point.

# example entries with known answers
CC(=O)c1sc2nc(-c3cccs3)cc(C(F)(F)F)c2c1N = 171 to 172 °C
COC(=O)C1CC(=O)C(C(=O)OC)CC1=O (stereo unspecified) = 154 to 157 °C
O=C(Cl)C(Cl)(c1ccccc1)c1ccccc1 = 47 to 52 °C

Prompt line: What measured melting point goes with `O=Cc1ccccc1OCc1c(Cl)cccc1Cl` ?
Response line: 109 to 112 °C

Prompt line: Lookup `O=[N+]([O-])c1ccc(Cl)cc1[N+](=O)[O-]`
Response line: 40 to 41 °C

Prompt line: Lookup O=C(O)C1CSC(c2ccccc2)N1 (mixture of isomers)
Response line: 158 to 162 °C

Prompt line: Lookup `O=c1[nH]nc(S)n1C1CCCCC1`
Response line: 190 to 194 °C

Prompt line: Lookup `Cc1ccc(C(C=O)C=O)cc1`
Response line: 128 to 134 °C

* * *

READOUT_TYPE: melting point

# example entries with known answers
COC(=O)/C(=C/c1ccc([N+](=O)[O-])cc1)c1ccccc1C(=O)OC = 121 to 122 °C
C(=Cc1ccccc1)CN1CCNCC1 = 39 to 44 °C
Cc1ccc2cc(CBr)ccc2n1 = 93 to 94 °C

Prompt line: What measured melting point goes with `NC(Cc1cccc2ccccc12)=NO` ?
Response line: 127 to 129 °C

Prompt line: Lookup `O=C(O)C(C(=O)O)c1ccccc1`
Response line: 153 to 155 °C

Prompt line: Lookup `COC(=O)c1cnc(NN)nc1C(F)(F)F`
Response line: 132 to 134 °C

Prompt line: Lookup `CCCCCCCCCCCC(=O)OOC(=O)CCCCCCCCCCC`
Response line: 53 to 57 °C
